# measured target: T1, recombinant hIL1RAP 21-367 (human, UniProt Q9NPH3 21-367)
# T1 construct: range 21-367; also called Rec hIL1RAP Domain123 (aa21-367); Domain123
# test summary: indirect ELISA on coated hIL1RAP 21-367, three-fold dilutions from 3.5 nM
property: pKd
// pKd: -log10(molar conc.)

Fill blank: measured pKd of the binder hCAN04 Variant 6 (antibody, human IgG1, kappa, V domains shown, Human IgG1za / kappa, expressed in CHOK1SV cells; also called Var6; humanized variant 6 of CAN04) VH: QVQLVQSGAEVKKPGSSVKVSCKASGYAFTSSWMNWVRQAPGQGLEWMGRIYPGDGNTHYAQKFQGRVTLTADKSTSTAYMELSSLRSEDTAVYYCGEGYLDPMDYWGQGTLVTVSS VL: DIQMTQSPSSLSASVGDRVTITCQASQGINNYLNWYQQKPGKAPKLLIHYTSGLHAGVPSRFSGSGSGTDYTLTISSLEPEDVATYYCQQYSILPWTFGGGTKVEIKR is ____.
9.76

Do the same for hCAN04 Variant 10 (antibody, human IgG1, kappa, V domains shown, Human IgG1za / kappa, expressed in CHOK1SV cells; also called Var10; humanized variant 10 of CAN04) VH: QVQLVQSGAEVKKPGSSVKVSCKASGYAFTSSWMNWVRQAPGQGLEWMGRIYPGDGNTHYAQKFQGRVTLTADKSTSTAYMELSSLRSEDTAVYYCGEGYLDPMDYWGQGTLVTVSS VL: DIQMTQSPSSLSASVGDRVTITCQASQGINNYLNWYQQKPGKAPKLLIHYTSGLHAGVPSRFSGSGSGTDFTLTISSLEPEDVATYYCQQYSILPWTFGGGTKVEIKR please
9.52

Do the same for hCAN04 Variant 8 (antibody, human IgG1, kappa, V domains shown, Human IgG1za / kappa, expressed in CHOK1SV cells; also called Var8; humanized variant 8 of CAN04) VH: QVQLVQSGAEVKKPGSSVKVSCKASGYTFTSSWMNWVRQAPGKGLEWMGRIYPGDGQTHYAQKFQGRVTITADKSTSTAYMELSSLRSEDTAVYYCGEGYLDPMDYWGQGTLVTVSS VL: DIQMTQSPSSLSASVGDRVTITCQASQGINNYLNWYQQKPGKAPKLLIHYTSGLHAGVPSRFSGSGSGTDYTLTISSLEPEDVATYYCQQYSILPWTFGGGTKVEIKR please
9.40
